Consider the following molecules; for each one, report its melting point.

Below are worked cases with known answers.
COc1ccc(C(C)=Nc2ccc(C3=NNC(=O)CC3)cc2)c(O)c1 | 269 °C
Cn1cc(-c2cccc(Br)c2)c(=O)c(-c2cccc(Br)c2)c1 | 216 °C
CC(C)(C)OC(=O)NC1Cc2ccccc2C1Oc1ccccc1 (stereo unspecified) | 99 to 101 °C
Nc1noc2cccc(OCCBr)c12 | 105 to 107 °C
CC(=O)Oc1ccc2c(c1)CCC1C2C(O)CC2(C)C(=O)CCC12 (stereo unspecified) | 180 to 182 °C

Let us move to another entry and its melting point.
[Q] I am curious: what melting point value has been reported for O=S(=O)(Cc1coc(/C=C/c2ccccc2)n1)c1ccc(CCCn2ccnc2)cc1 ?
[A] 116 to 117 °C

###

Consider the following compounds; for each one, report its melting point.

COc1ccc(Cl)cc1C(=O)NCCc1ccc(Br)cc1 | 104 to 109 °C
Nc1ncnc2c1c(-c1ccc(Oc3ccccc3)cc1)cn2CCCCCCCCN1C(=O)c2ccccc2C1=O | 85 to 86 °C
Cc1c(I)c(=O)n(-c2cc(C(=O)OC(C)C)c(Cl)cc2F)c(=O)n1C | 147 to 150 °C

Dear colleague, could you send me melting point for each of the items below? Thanks.
1. Nc1ccc(C(c2ccc(N)c(N)c2)(C(F)(F)F)C(F)(F)F)cc1N
2. CCOC(=O)NN=C(C)C1(N)C(O)CC2C3CC=C4CC(OC(C)=O)CCC4(C)C3CCC21C (stereo not given)

[A]
1. 218 to 220 °C
2. 287 to 289 °C

Dear colleague, could you send me melting point for each of the items below? Thanks.
1. CC(=O)ON=c1c2nccc3cccc(c32)n2cccc12
2. O=C(NNS(=O)(=O)c1ccccc1)c1ccc2c(c1)CCO2
3. O=[N+]([O-])c1cc(F)ccc1S(=O)(=O)c1ccccc1
4. Cc1c2ccccc2c(C)c2cc3c(cc12)C(=O)OC3=O
5. CCOC(=O)CN1CCc2c(sc(N)c2C(=O)c2ccccc2)C1

[A]
1. 177 to 179 °C
2. 181 to 183 °C
3. 127 to 129 °C
4. 278 °C
5. 115 to 117 °C

###

OBSERVED_PROPERTY: melting point

Below are worked cases with known answers.
O=C1CCCN1CCCCCCN1CCCC1=O | 101 to 103 °C
CNCCCN(C)C(=O)[C@@H]1CCCN1S(=O)(=O)c1ccc(Cl)c(COc2cccc3c(-n4ccnc4)cc(C)nc23)c1Cl | 125 °C
Cc1cc(-c2ccc3ncc(N)nc3c2)cc(C)c1O | 256 °C
N#CC=C1CCN(c2ccc(N3C[C@@H](CN=[N+]=[N-])OC3=O)cc2F)CC1 | 112 to 114 °C

Let us move to another entry and its melting point.
[Q] I am curious: what melting point value has been reported for Cc1cc(-c2ccc(C(F)(F)F)cn2)nc(-c2cccc(-c3cccc(S(N)(=O)=O)c3)n2)n1 ?
[A] 246 to 252 °C

###

OBSERVED_PROPERTY: melting point

Below are worked cases with known answers.
c1ccc(C(NC2C3CC4CC(C3)CC2(OCc2ccc(-c3nc5ccccc5o3)cc2)C4)(c2ccccc2)c2ccccc2)cc1 (centres undefined) | 208 to 210 °C
CC(=O)OCC(=O)C1(O)C(C)CC2C3CCC4=CC(=O)CCC4(C)C3C(=O)CC21C (centres undefined) | 214 to 219 °C
Cc1ccc(S(=O)(=O)NC(=O)OCCc2ccc(-n3c(C(C)C)nc4c(C)nc(C)cc43)cc2)cc1 | 213 °C

[Q] I am curious: what melting point value has been reported for CCOC(=O)[C@H](Cc1cccc(OS(=O)(=O)C(F)(F)F)c1)NC(=O)C(F)(F)F ?
[A] 38 to 39 °C

###

OBSERVED_PROPERTY: melting point

Below are worked cases with known answers.
CCNC(=O)c1cccc(NC(=O)c2nnn(Cc3ccc(Cl)c(Cl)c3)c2C)c1 | 192 °C
CC(C)(C)OC(=O)N1CCC(n2cc(-c3ccc(Oc4ccccc4)cc3)c3c(N)ncnc32)CC1 | 168 to 170 °C

Dear colleague, could you send me melting point for each of the items below? Thanks.
1. O=C(O)[C@@H]1CCCC[C@H]1C(=O)CCS (relative stereo)
2. N#CSc1ccc(F)c(C#N)c1

[A]
["71 to 74 °C", "39 to 41 °C"]

###

OBSERVED_PROPERTY: melting point

NC(=O)CCc1cnoc1-c1ccccc1 | 151 to 152 °C
CCCC[C@@H](NC(=O)[C@H](Cc1ccc(O)cc1)NC(=O)OC(C)(C)C)C(=O)NCC(=O)OCc1ccccc1 | 122 °C
Cc1nc(Cl)c(-c2c(F)cccc2F)n1-c1ccc(Cl)cc1 | 143 to 145 °C
CCOCC(=O)OCC(=O)C1(O)CCC2C3CC(C)C4=CC(=O)C=CC4(C)C3C(O)CC21C (stereo unspecified) | 229 °C
O=c1cccc(-c2nc(=O)c3ccccc3s2)[nH]1 | 214 to 215 °C

Dear colleague, could you send me melting point for each of the items below? Thanks.
1. CCNC1C(C)CN(c2c(F)cc3c(=O)c(C(=O)O)cn(C4CC4)c3c2OC)CC1C (stereo unspecified)
2. NC(=O)/C=C1/c2cc(F)ccc2C(O)C1O (stereo unspecified)
3. Nc1ccccc1C(=O)NC(=O)Nc1ccc(Oc2ncc(Br)cn2)c(Cl)c1

[A]
1: 250 to 252 °C; 2: 212 to 220 °C; 3: 196 to 200 °C

###

OBSERVED_PROPERTY: melting point

CS(=O)(=O)CCCn1c(=NC(=O)c2cccc(Cl)c2)sc2cc(OC(F)(F)F)ccc21 | 188 °C
CCOc1ccc(F)cc1OCCN1C(=O)c2ccccc2C1=O | 119 to 121 °C

Dear colleague, could you send me melting point for each of the items below? Thanks.
1. CC1(COc2ccc(Cc3nnn[nH]3)cc2)CCCCC1=NO (stereo not given)
2. COC(=O)c1ccc(Sc2ccc(OCCCCl)cc2)cc1
3. CNC(=O)N1CC(Oc2ccc(Br)cc2)C1
4. CC(C)c1cccc(C(C)C)c1NC(=O)CN1CCN(c2cccc(Sc3nc4ccccc4[nH]3)c2)CC1

[A]
1: 153 to 156 °C; 2: 65 to 67 °C; 3: 135 to 137 °C; 4: 123 to 125 °C

Dear colleague, could you send me melting point for each of the items below? Thanks.
1. COc1ccc(C2Sc3c(ccc4ccccc34)N(CCN(C)C)C(=O)C2OC)cc1 (stereo not given)
2. CC1CCN(c2c(C#N)c3c(c4c2CCc2ccccc2-4)-c2ccccc2C3)CC1
3. O=C(NC1N=C(c2ccccc2)c2ccccc2NC1=O)c1ccc2ccccc2c1 (racemic)

[A]
118 to 120 °C
152 to 154 °C
293 to 294 °C

Dear colleague, could you send me melting point for each of the items below? Thanks.
1. NC(=O)c1ccc(NC(=O)C2CCCN(Cc3ccccc3)C2)cc1 (stereo not given)
2. CC(C)(C)c1cc2c(c(C(C)(C)C)c1O)CC1(CCSCC1)O2
3. Cc1cccc(C)c1NC(=O)c1cc(C)n(C)n1
4. COc1ccc(-c2ccc(C(=O)O)cc2)cc1-c1cccc([N+](=O)[O-])c1
5. Cc1cc(Cl)cc2c(=O)oc(-c3cc(Cl)nn3-c3ncccc3Cl)nc12
6. CCn1cc(C(=O)O)c(=O)c2cc(F)c(N[C@@H]3CCC[C@@H]3N)cc21 (relative stereo)
7. C=CCOC(=O)c1c(C)nc2c(cnn2C/C=C\CC)c1N

[A]
1. 211 to 212 °C
2. 209 °C
3. 155 °C
4. 270 to 274 °C
5. 199 to 201 °C
6. 233 to 235 °C
7. 78 to 81 °C

Dear colleague, could you send me melting point for each of the items below? Thanks.
1. Cc1ccc2c(-c3cnc4[nH]cc(C(=O)N[C@H](C)C(=O)N5CC(C#N)C5)c4n3)nn(C)c2c1
2. Cc1csc(C2=C(c3ccc(S(C)(=O)=O)cc3)CCC2)c1

[A]
260 to 275 °C
138 to 139 °C

Dear colleague, could you send me melting point for each of the items below? Thanks.
1. CCc1ccc(C=NNC(=O)c2ccc(O)cc2)o1
2. COC(=O)c1nc(Br)cc(N)c1Cl

[A]
1. 60.5 °C
2. 194 to 195 °C

###

Consider the following compounds; for each one, report its melting point.

Below are worked cases with known answers.
CCN1CCCC1CNC(=O)c1cc(S(C)(=O)=O)c(N)cc1OC (stereo not given) | 151 to 152 °C
COC(=O)C=CC=CCSc1ccc(N(C)C)cc1 | 68 to 70 °C
O=C(NCc1cccc(C(F)(F)F)c1)c1cncc2c1cnn2-c1ccc(F)cc1 | 172 to 173 °C
COCCc1nc2c(N)nc3c(c2n1CCOCCNC(=O)c1ccccc1)CCCC3 | 141 to 143 °C

Dear colleague, could you send me melting point for each of the items below? Thanks.
1. CCOC(=O)c1cc2cc([N+](=O)[O-])cc(CC)c2o1
2. Cc1ccc2[nH]c(=O)sc2c1
3. S=C(NC1CCCCC1)N1CCN(c2cnccn2)CC1
4. Cc1c(O)ccc2c(=O)c(-c3ccc([N+](=O)[O-])cc3)coc12

[A]
1: 114 to 116 °C; 2: 70 to 71 °C; 3: 176 to 178 °C; 4: 345 °C

Dear colleague, could you send me melting point for each of the items below? Thanks.
1. CCc1ccc2ncc(C(=O)N(O)c3ccccc3)c(O)c2c1
2. CN1CCC(=C2c3ccccc3Sc3ccc(SC(F)(F)F)cc32)CC1

[A]
1: 218 °C; 2: 104 to 106 °C
